Data provenance: ChEMBL document CHEMBL3352204

In this section, each of the compounds is paired with its reported MIC.
Test system: Bacillus cereus
Assay: Antibacterial activity against Bacillus cereus CMCC 63302 after 7 hrs by Alamar Blue assay
Assay type: functional
Details: CMCC 63302, 7 h
readout.name: MIC

| compound | readout.name | value.measured |
| --- | --- | --- |
| NC[C@H]1O[C@H](O[C@H]2[C@H](O)[C@@H](O[C@H]3O[C@H](CO)[C@@H](O)[C@H](N)[C@H]3O)[C@H](N)C[C@@H]2N)[C@H](O)[C@@H](O)[C@@H]1O [KANAMYCIN] | MIC | 6.25 mg/L |
| C=C1CC[C@H]2[C@](C)(CO)CCC[C@]2(C)[C@H]1CC1=C(O)C(=O)[C@](O)(CO)[C@H](O)[C@H]1O | MIC | > 100 mg/L |
| C[C@@]1(CO)CCC[C@]2(C)[C@H]3C[C@@]45O[C@@H]4C(=O)[C@]4(CO)O[C@@H]4[C@]5(O)CC3=CC[C@@H]12 [HYMENOPSIN B] | MIC | > 100 mg/L |
| C=C1CC[C@H]2[C@](C)(COC(C)=O)CCC[C@]2(C)[C@H]1C[C@]12O[C@H]1[C@H](O)C(CO)=CC2=O | MIC | > 100 mg/L |

====

In this section, each of the compounds is paired with its reported MIC.
Tested on: Bacillus cereus
Assay: Antibacterial activity against Bacillus cereus CMCC 63302 after 7 hrs by Alamar Blue assay
Format: functional
Conditions: CMCC 63302, 7 h

| compound | rel | MIC / µg/mL |
| --- | --- | --- |
| C=C1CC[C@H]2[C@](C)(CO)CCC[C@]2(C)[C@H]1C[C@@]12O[C@@H]1[C@@H](O)C(CO)=CC2=O | = | 100 |
| C=C1CC[C@H]2[C@](C)(COC(C)=O)CCC[C@]2(C)[C@H]1C[C@@]12O[C@@H]1[C@@H](O)C(CO)=CC2=O | > | 100 |
| C=C1CC[C@H]2[C@](C)(CO)CCC[C@]2(C)[C@H]1C[C@]12O[C@H]1[C@@H](O)C(CO)=C(Cl)C2=O | = | 25 |
| C=C1CC[C@H]2[C@](C)(CO)CCC[C@]2(C)[C@H]1C[C@]12O[C@H]1[C@@H](O)C(CO)=CC2=O | = | 100 |

====

In this section, each of the compounds is paired with its reported pIC50.
Test system: HepG2
Assay: Cytotoxicity against human HepG2 cells assessed as inhibition of cell growth after 72 hrs by MTT assay
Format: functional, cell-based
Conditions: HepG2, 72 h
pIC50: −log10 of the molar value.

| compound | rel | pIC50 |
| --- | --- | --- |
| C=C1CC[C@H]2[C@](C)(CO)CCC[C@]2(C)[C@H]1C[C@]12O[C@H]1[C@@H](O)C(CO)=C(Cl)C2=O | = | 4.82 |
| C=C1CC[C@H]2[C@](C)(CO)CCC[C@]2(C)[C@H]1CC1=C(O)C(=O)[C@](O)(CO)[C@H](O)[C@H]1O | < | 4.30 |
| C=C1CC[C@H]2[C@](C)(CO)CCC[C@]2(C)[C@H]1C[C@]12O[C@H]1[C@@H](O)C(CO)=CC2=O | = | 4.31 |
| C=C1CC[C@H]2[C@](C)(CO)CCC[C@]2(C)[C@H]1C[C@@]12O[C@@H]1[C@@H](O)C(CO)=CC2=O | = | 4.47 |
| C=C1CC[C@H]2[C@](C)(COC(C)=O)CCC[C@]2(C)[C@H]1C[C@@]12O[C@@H]1[C@@H](O)C(CO)=CC2=O | = | 4.56 |
| C[C@@]1(CO)CCC[C@]2(C)[C@H]3C[C@@]45O[C@@H]4C(=O)[C@]4(CO)O[C@@H]4[C@]5(O)CC3=CC[C@@H]12 | = | 5.49 |
| C=C1CC[C@H]2[C@](C)(COC(C)=O)CCC[C@]2(C)[C@H]1C[C@]12O[C@H]1[C@H](O)C(CO)=CC2=O | = | 4.42 |
